pIC50: −log10 of the molar value.
Target or system human mPGES-1 (Homo sapiens); metric pIC50; compiled from varied reports.
Is pIC50 at least 7? Then yes. If not, no.

- test smiles: "O=C(NCc1ccc(Cl)c(-c2nc(O)nc(-c3ccccc3)n2)c1)C1CCC1"
  assigned category: "yes"
- test smiles: "CC(C)(C)C#Cc1ccc(C(=O)NS(=O)(=O)c2ccccc2S(N)(=O)=O)cn1"
  assigned category: "no"
- test smiles: "NS(=O)(=O)c1cc(-c2ccccc2)ccc1NS(=O)(=O)c1cccc(-c2ccc(Cl)c(Cl)c2)c1"
  assigned category: "no"
- test smiles: "CC(C)Oc1cc(C(=O)NS(=O)(=O)c2ccccc2S(N)(=O)=O)ccc1C#CC(C)(C)O"
  assigned category: "no"
- test smiles: "Cc1c(Cl)cccc1NC(=O)c1cc(NC(=O)c2ccccc2C(F)(F)F)cc2c1ncn2C"
  assigned category: "yes"
- test smiles: "CC(C)(C)c1ccc(-c2ccc3c(c2)cc(C(=O)NCCS(=O)(=O)O)n3-c2ccc(OC3CCCC3)cc2)cc1"
  assigned category: "no"
- test smiles: "CC1(C)CC(C(=O)NCc2ccc(Cl)c(-c3nc(O)nc(-c4ccc(OCC5CC5)cc4)n3)c2)C1"
  assigned category: "yes"

###

pIC50 for human mPGES-1 (Homo sapiens, UniProt O14684) - collated from the literature.
pIC50: −log10 of the molar value.
recorded endpoint: pIC50

- test smiles: "Cc1cc(C)nc(COc2cccc(C(F)(F)F)c2-c2nc(O)nc(-c3ccc(C#Cc4ccccc4)cc3)n2)c1"
  observed measurement: 8.13
- test smiles: "NS(=O)(=O)c1ccccc1S(=O)(=O)NC(=O)c1ccc(C#CC(O)(C2CC2)C2CC2)cc1"
  observed measurement: 6.66
- test smiles: "CNC(=O)Cc1ccc(Cl)c(-c2nc(O)nc(-c3ccc(C(F)(F)F)cc3)n2)c1"
  observed measurement: 7.74
- test smiles: "COCc1nc2c(C(=O)Nc3cccc(Cl)c3C)cc(NC(=O)c3ccccc3C(F)(F)F)cc2n1C"
  observed measurement: 6.93

###

pIC50 values for human mPGES-1 (Homo sapiens) compiled from several publications are listed below.
pIC50: −log10 of the molar value.
recorded endpoint: pIC50

- test smiles: "NS(=O)(=O)c1ccccc1NS(=O)(=O)/C=C/c1ccccc1Cl"
  observed measurement: 6.23
- test smiles: "CC1(C(=O)NCc2ccc(Cl)c(-c3nc(O)nc(-c4ccccc4)n3)c2)CCCCC1"
  observed measurement: 9.22
- test smiles: "NS(=O)(=O)c1ccccc1NS(=O)(=O)c1cccc(-c2cccc(CO)c2)c1"
  observed measurement: 5.77
- test smiles: "CC(C)(F)C(=O)NCc1ccc(C(F)(F)F)c(-c2nc(-c3ccc(C(F)(F)F)cn3)cc(=O)[nH]2)c1F"
  observed measurement: 8.74
- test smiles: "CO[C@](C)(C(=O)NCc1ccc(Cl)c(-c2nc(O)nc(-c3ccc(OCC(C)C)cc3)n2)c1)C(F)(F)F"
  observed measurement: 8.64
- test smiles: "Cc1ccc(CCS(=O)(=O)Nc2ccccc2S(N)(=O)=O)c(OCC2CCOCC2)c1"
  observed measurement: 7.82
- test smiles: "Cc1cc(C)c(-c2nc(O)nc(-c3ccc(C(F)(F)F)cc3)n2)c(C)c1"
  observed measurement: 6.32
- test smiles: "CCc1cc(-c2nc(O)nc(-c3cc(CNC(=O)C(C)(C)C(F)(F)F)ccc3Cl)n2)ccc1F"
  observed measurement: 9.05

###

Please find below IC50 measurements for human mPGES-1 (Homo sapiens, UniProt O14684), combined from several publications.

- test smiles: "NS(=O)(=O)c1c(F)cccc1NS(=O)(=O)/C=C/c1ccccc1C(F)(F)F"
  unit abbreviation: "µM"
  IC50: 2.8
- test smiles: "N#Cc1ccc(CCOc2cc(Cl)ccc2CCS(=O)(=O)Nc2ccccc2S(N)(=O)=O)cc1"
  unit abbreviation: "µM"
  IC50: 0.0199
- test smiles: "COc1cc(C(=O)NS(=O)(=O)c2ccccc2S(N)(=O)=O)ccc1C#Cc1ccc(Cl)cc1"
  unit abbreviation: "µM"
  IC50: 0.0084
- test smiles: "Oc1nc(-c2ccc(OCC3CCC3)cc2)nc(-c2c(Cl)cccc2OCc2ccccn2)n1"
  unit abbreviation: "µM"
  IC50: 0.0037
- test smiles: "COc1cc(Cl)ccc1CCS(=O)(=O)Nc1cc(C)ccc1S(N)(=O)=O"
  unit abbreviation: "µM"
  IC50: 0.72
- test smiles: "Cc1ccc(NS(=O)(=O)CCc2ccc(C#CC(C)(C)C)cc2)c(S(N)(=O)=O)c1"
  unit abbreviation: "µM"
  IC50: 0.36
- test smiles: "Oc1nc(-c2ccc(C#Cc3ccccc3)cc2)nc(-c2c(OCc3ccc(Cl)cn3)cccc2C(F)(F)F)n1"
  unit abbreviation: "µM"
  IC50: 0.0059
- test smiles: "CCc1nc2c(C(=O)NC3CCCCC3)cc(NC(=O)c3ccccc3C(F)(F)F)cc2[nH]1"
  unit abbreviation: "µM"
  IC50: 0.0216
- test smiles: "COc1cccc(CCOc2cc(Cl)ccc2CCS(=O)(=O)Nc2ccccc2S(N)(=O)=O)c1"
  unit abbreviation: "µM"
  IC50: 0.0064
- test smiles: "CC1(COc2ccc(-c3nc(O)nc(-c4cc(CNC(=O)C(C)(C)C(F)(F)F)ccc4Cl)n3)cc2)CC1"
  unit abbreviation: "µM"
  IC50: 0.0013
- test smiles: "Cc1nc2c(C(=O)NC3CCC3)cc(NC(=O)c3ccccc3C(F)(F)F)cc2[nH]1"
  unit abbreviation: "µM"
  IC50: 0.0639
- test smiles: "NS(=O)(=O)c1ccccc1NS(=O)(=O)c1cccc(-c2ccc3c(c2)CCO3)c1"
  unit abbreviation: "µM"
  IC50: 2.1
- test smiles: "Cc1ccc(Cl)c(-c2nc(O)nc(-c3ccc(C(F)(F)F)cc3)n2)c1"
  unit abbreviation: "µM"
  IC50: 0.025
- test smiles: "CC(C)Oc1ccc(-n2c(C(=O)O)cc3cc(-c4ccc(OC(C)C)nc4)ccc32)cc1"
  unit abbreviation: "µM"
  IC50: 0.61
- test smiles: "CCCCc1ccc(Cl)c(-c2nc(O)nc(-c3ccc(OCC(C)(C)C)cc3)n2)c1"
  unit abbreviation: "µM"
  IC50: 0.367
- test smiles: "CC(C)Oc1ccc(-c2c(C(=O)O)n(-c3cccnc3)c3ccc(-c4ccc(C(C)(C)C)cc4)cc23)cc1"
  unit abbreviation: "µM"
  IC50: 0.95

###

Here's a roundup of pIC50 values tested on human mPGES-1 (Homo sapiens, UniProt O14684), taken from various published works.
Sequence (O14684 whole entry): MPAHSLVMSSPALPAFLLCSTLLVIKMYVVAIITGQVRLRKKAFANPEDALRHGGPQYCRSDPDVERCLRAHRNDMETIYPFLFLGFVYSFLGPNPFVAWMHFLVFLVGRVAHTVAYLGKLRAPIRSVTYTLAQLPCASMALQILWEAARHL
pIC50: −log10 of the molar value.

- test smiles: "CCn1cnc2c(C(=O)NCc3ccccc3C(F)(F)F)cc(NC(=O)c3ccccc3C(F)(F)F)cc21"
  pIC50: 6.92
- test smiles: "NS(=O)(=O)c1ccccc1NS(=O)(=O)CCc1ccc(F)cc1OCC1CCC(F)(F)CC1"
  pIC50: 8.12
- test smiles: "CC(C)C#Cc1ccc(C(=O)NS(=O)(=O)c2ccccc2S(N)(=O)=O)cc1OCCCC(F)(F)F"
  pIC50: 7.82
- test smiles: "CC(C)C#Cc1ccc(C(=O)NS(=O)(=O)c2ccccc2S(N)(=O)=O)cc1OCCOCC(F)(F)F"
  pIC50: 7.59
- test smiles: "NS(=O)(=O)c1ccccc1NS(=O)(=O)c1cc(Cl)c(Cl)s1"
  pIC50: 5.92
- test smiles: "NS(=O)(=O)c1ccccc1S(=O)(=O)NC(=O)c1ccc(-c2cccc(Cl)c2Cl)cn1"
  pIC50: 5.70
- test smiles: "CCCC(CO)(CCC)C(=O)NCc1ccc(Cl)c(-c2nc(O)nc(-c3ccccc3)n2)c1"
  pIC50: 6.75
- test smiles: "Cc1ccc(Cl)c(-c2nc(O)nc(-c3ccc(C(F)(F)F)cc3)n2)c1OCc1ccccn1"
  pIC50: 7.47

###

Dear all, I have gathered published pIC50 values for human mPGES-1 (Homo sapiens, UniProt O14684); the list follows.
pIC50: −log10 of the molar value.
Quick rule: pIC50 of at least 7 means true, below that means false.

- test smiles: "Cc1cccc(-c2nc(O)nc(-c3cc(CNC(=O)C(C)(C)C(F)(F)F)ccc3Cl)n2)c1"
  assigned category: "true"
- test smiles: "Cc1c(Cl)cccc1NC(=O)c1cc(NC(=O)c2ccccc2C(F)(F)F)cc2[nH]c([C@@H]3CCCN3C)nc12"
  assigned category: "true"
- test smiles: "NS(=O)(=O)c1ccccc1S(=O)(=O)NC(=O)c1ccc(-c2cc3ccccc3o2)c(F)c1"
  assigned category: "true"
- test smiles: "NS(=O)(=O)c1cc2c(cc1NS(=O)(=O)CCc1ccc(-c3ccco3)cc1)CCC2"
  assigned category: "false"
- test smiles: "COCc1nc2c(C(=O)NCc3ccccc3C(F)(F)F)cc(NC(=O)c3ccccc3C(F)(F)F)cc2[nH]1"
  assigned category: "true"
- test smiles: "CC(C)C#Cc1ccc(C(=O)NS(=O)(=O)c2ccccc2S(N)(=O)=O)cn1"
  assigned category: "false"
- test smiles: "CC(C)(C)C(=O)NCc1ccc(Cl)c(-c2nc(O)nc(-c3ccc(OC(F)(F)F)cc3)n2)c1"
  assigned category: "true"
- test smiles: "Oc1nc(-c2ccc(C#Cc3ccccc3C(F)(F)F)cc2)nc(-c2c(OCc3ccccn3)cccc2C(F)(F)F)n1"
  assigned category: "true"
- test smiles: "COc1cc(C(=O)NS(=O)(=O)c2ccccc2S(N)(=O)=O)ccc1COc1ccc(C)cc1"
  assigned category: "true"
- test smiles: "COc1ccc(S(=O)(=O)NC(=O)c2ccc(C#CC(C)(C)C)cc2)c(S(N)(=O)=O)c1"
  assigned category: "false"
- test smiles: "CC(C)COCc1ccc(Cl)c(-c2nc(O)nc(-c3ccc(OCC(C)(C)C)cc3)n2)c1"
  assigned category: "true"
- test smiles: "COCc1nc2c(C(=O)Nc3cccc(Cl)c3C)cc(NC(=O)c3cc(CCC4CC4)ccc3Cl)cc2[nH]1"
  assigned category: "true"
- test smiles: "CCC(C)(C)C(=O)NCc1ccc(Cl)c(-c2nc(O)nc(-c3cccc(C(F)(F)F)c3)n2)c1"
  assigned category: "true"
- test smiles: "NS(=O)(=O)c1ccc(F)cc1NS(=O)(=O)/C=C/c1ccc(-c2cc3ccccc3o2)cc1"
  assigned category: "true"
